# experiment: Bidirectional permeability assay (Caco-2 cells)
# test.conditions: human, Caco-2
# True = Papp B→A at 120 min, 10 µM below 2 ×10⁻⁶ cm/s (exclusive); False = Papp B→A at 120 min, 10 µM at/above 2 ×10⁻⁶ cm/s

The following compounds have reported results that may help.
CCCC1(CC)CN(c2ccccc2)c2cc(SC)c(O/C=C(\F)C(=O)O)cc2S(=O)(=O)C1 (centres unmarked) | False
CCCCC1(CCCC)CN(c2ccc(F)cc2)c2cc(SC)c(O/C=C(\F)C(=O)O)cc2S(=O)(=O)C1 | True
CCCCC1(CC)CN(c2ccccc2)c2cc(N(C)C)c(O/C=C/C(=O)O)cc2S(=O)(=O)N1 (centres unmarked) | False

Ask | Quick check: Papp B→A at 120 min, 10 µM of CCCCC1(CC)CN(c2ccccc2)c2cc(N(C)C)c(O/C=C(\F)C(=O)O)cc2S(=O)(=O)N1 (centres unmarked) under 2 ×10⁻⁶ cm/s?
Reply | False

###

# target.or.system: hIBAT (Homo sapiens)
# Construct: kept under Puromycin selection
# Sequence (Q12908 whole entry): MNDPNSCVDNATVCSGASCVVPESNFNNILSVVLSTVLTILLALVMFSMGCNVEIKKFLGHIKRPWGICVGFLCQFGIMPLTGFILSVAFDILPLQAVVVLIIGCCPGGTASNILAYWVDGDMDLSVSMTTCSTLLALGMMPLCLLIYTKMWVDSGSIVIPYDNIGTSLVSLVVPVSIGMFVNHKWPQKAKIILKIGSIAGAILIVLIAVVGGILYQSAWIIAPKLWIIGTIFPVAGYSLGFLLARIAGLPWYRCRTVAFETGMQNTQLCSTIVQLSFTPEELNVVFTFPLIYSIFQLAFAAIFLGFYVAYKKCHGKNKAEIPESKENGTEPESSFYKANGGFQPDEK
# experiment: IBAT (h/m) assay, 3H-taurocholic acid uptake in human IBAT-overexpressing cells
# test.conditions: 0.25 μM 3H-taurocholic acid and 5 μM cold taurocholic acid, 20 minutes
Each item that follows carries a reported IC50.
Respond with the bare value in nM.

CCCC1(CC)CN(c2ccccc2)c2cc(SC)c(O/C=C(\F)C(=O)O)cc2S(=O)(=O)C1 (centres unmarked) [Example 12] | 156
CCCCC1(CC)CN(c2ccc(F)cc2)c2cc(SC)c(O/C=C(\F)C(=O)O)cc2S(=O)(=O)C1 (centres unmarked) [Example 5] | 5
CCCCC1(CC)CN(c2ccccc2)c2cc(N(C)C)c(O/C=C(\F)C(=O)O)cc2S(=O)(=O)N1 (centres unmarked) [Example 2] | 13

Ask | IC50 for CCCC[C@@]1(CC)CN(c2ccccc2)c2cc(N(C)C)c(O/C=C/C(=O)O)cc2S(=O)(=O)N1.CCCC[C@]1(CC)CN(c2ccccc2)c2cc(N(C)C)c(O/C=C/C(=O)O)cc2S(=O)(=O)N1 (mixture of isomers) [Example 15] ?
Reply | 66

Ask | IC50 for CCCC1(CC)CN(c2ccccc2)c2cc(SC)c(O/C=C/C(=O)O)cc2S(=O)(=O)C1 (centres unmarked) [Example 11] ?
Reply | 260
